# assayMethodText: Met bis-alkylation (bis-sulfonium staple) of one unprotected peptide with different dihalide linkers (1.2 equiv), 1% HCOOH (pH ~3), 24 h
# details: the molecule shown is the open-chain precursor, 23-membered ring, MeCN/H2O 30:70 (SI: 1:3) + 1% HCOOH, small amount of DMF, 10.0 mM, 25.0 °C
# note: exactly 50% is not below, so it is false (0); use true (1) for ring closure, conversion by HPLC strictly under it

{"molecule": "CSCC[C@H](NC(=O)[C@H](CC(=O)O)NC(=O)CNC(=O)[C@H](CCCNC(=N)N)NC(=O)[C@H](CC[S+](C)CCCCI)NC(=O)[C@H](Cc1c[nH]c2ccccc12)NC(C)=O)C(N)=O (stereo partly drawn) [Ac-Trp-Met-Arg-Gly-Asp-Met-NH2 + 1,4-diiodobutane]", "assignedClass": "true (1)"}

Read the next record carefully.
In: Hi there! Is ring closure, conversion by HPLC for CSCC[C@H](NC(=O)[C@H](CC(=O)O)NC(=O)CNC(=O)[C@H](CCCNC(=N)N)NC(=O)[C@H](CC[S+](C)Cc1ccccc1CBr)NC(=O)[C@H](Cc1c[nH]c2ccccc12)NC(C)=O)C(N)=O (stereo partly drawn) [Ac-Trp-Met-Arg-Gly-Asp-Met-NH2 + 1,2-bis(bromomethyl)benzene] below 50%, do you know?
Out: false (0)

###

# assayMethodText: Met bis-alkylation (bis-sulfonium staple) of one unprotected peptide with different dihalide linkers (1.2 equiv), 1% HCOOH (pH ~3), 24 h
# details: the molecule shown is the open-chain precursor, 23-membered ring, MeCN/H2O 30:70 (SI: 1:3) + 1% HCOOH, small amount of DMF, 10.0 mM, 25.0 °C
I'd be grateful if you could share measured ring closure, conversion by HPLC for these entries.
Include the unit right after the number.

{"molecule": "CSCC[C@H](NC(=O)[C@H](CC(=O)O)NC(=O)CNC(=O)[C@H](CCCNC(=N)N)NC(=O)[C@H](CC[S+](C)CCCCBr)NC(=O)[C@H](Cc1c[nH]c2ccccc12)NC(C)=O)C(N)=O (stereo partly shown)", "ring closure, conversion by HPLC": "0%"}
{"molecule": "CSCC[C@H](NC(=O)[C@H](CC(=O)O)NC(=O)CNC(=O)[C@H](CCCNC(=N)N)NC(=O)[C@H](CC[S+](C)C/C=C/CBr)NC(=O)[C@H](Cc1c[nH]c2ccccc12)NC(C)=O)C(N)=O (stereo partly drawn) [Ac-Trp-Met-Arg-Gly-Asp-Met-NH2 + (E)-1,4-dibromobut-2-ene]", "ring closure, conversion by HPLC": "93%"}

Batch: ring closure, conversion by HPLC for all items listed.
1. CSCC[C@H](NC(=O)[C@H](CC(=O)O)NC(=O)CNC(=O)[C@H](CCCNC(=N)N)NC(=O)[C@H](CC[S+](C)CC(=O)C(=O)CBr)NC(=O)[C@H](Cc1c[nH]c2ccccc12)NC(C)=O)C(N)=O (stereo partly shown)
2. CSCC[C@H](NC(=O)[C@H](CC(=O)O)NC(=O)CNC(=O)[C@H](CCCNC(=N)N)NC(=O)[C@H](CC[S+](C)Cc1nc2ccccc2nc1CBr)NC(=O)[C@H](Cc1c[nH]c2ccccc12)NC(C)=O)C(N)=O (stereo partly shown)

Out:
1: 64%; 2: 53%

Where these numbers come from: paper PMC5931191
